Cited source: ChEMBL document CHEMBL1157705

biological target: Carbonic anhydrase 1 (Homo sapiens) (UniProt P00915)
Sequence (P00915 2-261 limits assumed): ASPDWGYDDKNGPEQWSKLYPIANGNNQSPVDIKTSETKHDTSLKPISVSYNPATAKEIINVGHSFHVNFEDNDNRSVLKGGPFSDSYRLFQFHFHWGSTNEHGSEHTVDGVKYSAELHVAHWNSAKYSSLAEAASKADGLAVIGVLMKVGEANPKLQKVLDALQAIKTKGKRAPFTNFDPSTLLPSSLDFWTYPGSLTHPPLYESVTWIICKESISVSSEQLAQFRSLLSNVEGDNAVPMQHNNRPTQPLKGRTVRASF
Provide the recorded Ki for the entries that follow.
Give bare numbers, in µM.

Would you please look over these solved cases?
**Q:** Checklist item: Ki tested on Carbonic anhydrase 1 (Homo sapiens) (UniProt P00915), entry `COc1cc(C[C@@H](C)[C@H](C)Cc2ccc(O)c(OC)c2)ccc1O` , value?
**A:** 307

**Q:** Observed Ki on Carbonic anhydrase 1 (Homo sapiens) (UniProt P00915) for `CCCCNC(=O)Cc1ccc(O)c(Cl)c1` , please.
**A:** 10.7

Dear reader, for each entry below, please note its Ki.
1. COc1cc([C@@H]2[C@@H](C)[C@H](C)[C@H]2c2ccc(O)c(OC)c2)ccc1O
2. COc1cc([C@@H]2[C@@H](C)[C@@H](C)[C@@H]2c2ccc(O)c(OC)c2)ccc1O

**A:**
1. 368
2. 354
